This section presents compounds with their documented CC50 at 48 h values.
assay_comment: Cytotoxicity against human HGF cells assessed as reduction in cell viability incubated for 48 hrs by MTT assay
Format: cell-based

Past entries and their recorded results:
- O=C(O)c1cc(O)c(O)c(Oc2c(C(=O)O)cc(Oc3c(C(=O)O)cc(O)c(O)c3O)c(O)c2O)c1: > 395 µM
- O=c1[nH]cc(F)c(=O)[nH]1 [FLUOROURACIL]: > 1000 µM
- O=C(OC[C@H]1O[C@H]2OC(=O)c3cc(O)c(O)c(c3)Oc3c(cc(Oc4c(C(=O)O[C@H]5[C@H](OC(=O)c6cc(O)c(O)c(O)c6)O[C@@H]6COC(=O)c7cc(O)c(O)c(O)c7-c7c(cc(O)c(O)c7O)C(=O)O[C@H]6[C@@H]5OC(=O)c5cc(O)c(O)c(O)c5)cc(O)c(O)c4O)c(O)c3O)C(=O)O[C@@H]2[C@@H](OC(=O)c2cc(O)c(O)c(O)c2)[C@@H]1O)c1cc(O)c(O)c(O)c1: > 116 µM

Now turn to the next compound.
Which CC50 at 48 h value belongs to COc1cccc2c1C(=O)c1c(O)c3c(c(O)c1C2=O)C[C@@](O)(C(=O)CO)C[C@@H]3O[C@H]1C[C@H](N)[C@H](O)[C@H](C)O1 [DOXORUBICIN] ?
> 10 µM

* * *

assay_comment: Cytotoxicity against human HPLF cells assessed as reduction in cell viability incubated for 48 hrs by MTT assay
Assay type: cell-based
This section presents molecules with their documented CC50 at 48 h values.

• COc1cccc2c1C(=O)c1c(O)c3c(c(O)c1C2=O)C[C@@](O)(C(=O)CO)C[C@@H]3O[C@H]1C[C@H](N)[C@H](O)[C@H](C)O1 = > 10 µM
• O=C(OC[C@H]1O[C@H]2OC(=O)c3cc(O)c(O)c(c3)Oc3c(cc(Oc4c(C(=O)O[C@H]5[C@H](OC(=O)c6cc(O)c(O)c(O)c6)O[C@@H]6COC(=O)c7cc(O)c(O)c(O)c7-c7c(cc(O)c(O)c7O)C(=O)O[C@H]6[C@@H]5OC(=O)c5cc(O)c(O)c(O)c5)cc(O)c(O)c4O)c(O)c3O)C(=O)O[C@@H]2[C@@H](OC(=O)c2cc(O)c(O)c(O)c2)[C@@H]1O)c1cc(O)c(O)c(O)c1 = > 116 µM
• O=C(O)c1cc(O)c(O)c(Oc2c(C(=O)O)cc(Oc3c(C(=O)O)cc(O)c(O)c3O)c(O)c2O)c1 = > 395 µM

Now turn to the next molecule.
Which CC50 at 48 h value belongs to O=c1[nH]cc(F)c(=O)[nH]1 ?
> 1000 µM
